Tested Target: JAK3 (Homo sapiens (Human), UniProt P52333)
Sequence (P52333 822-1111): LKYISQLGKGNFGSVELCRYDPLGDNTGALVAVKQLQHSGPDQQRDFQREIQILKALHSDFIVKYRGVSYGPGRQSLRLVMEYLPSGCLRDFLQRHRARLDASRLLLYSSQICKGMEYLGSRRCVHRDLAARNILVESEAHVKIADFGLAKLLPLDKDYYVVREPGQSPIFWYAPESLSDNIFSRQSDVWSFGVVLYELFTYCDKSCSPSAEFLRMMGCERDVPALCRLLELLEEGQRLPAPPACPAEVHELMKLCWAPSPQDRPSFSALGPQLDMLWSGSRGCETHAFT
Assay Name: Purified kinase assay (Z'-LYTE), JAK3
Type: biochemical
Measurement Context: Table 1; read-out: JAK3 IC50
pIC50: −log10 of the molar value.
Quantity Kind: pIC50

• CC(=O)N1CCN(c2ccc(Nc3cc(NCc4ccccc4C)c(C(N)=O)nn3)cc2)CC1 = 8.00 to 9.00

May I ask what pIC50 has been recorded for CCC(=O)N1CCC(c2ccc(Nc3cc(NCc4ccccc4F)c(C(N)=O)nn3)cc2)CC1 ?
7.00 to 8.00

May I ask what pIC50 has been recorded for CS(=O)(=O)Cc1ccc(Nc2cc(NCc3c(F)cccc3F)c(C(N)=O)nn2)cc1 ?
8.00 to 9.00

====

Tested Target: JAK2 (Homo sapiens (Human))
Sequence (O60674 849-1124): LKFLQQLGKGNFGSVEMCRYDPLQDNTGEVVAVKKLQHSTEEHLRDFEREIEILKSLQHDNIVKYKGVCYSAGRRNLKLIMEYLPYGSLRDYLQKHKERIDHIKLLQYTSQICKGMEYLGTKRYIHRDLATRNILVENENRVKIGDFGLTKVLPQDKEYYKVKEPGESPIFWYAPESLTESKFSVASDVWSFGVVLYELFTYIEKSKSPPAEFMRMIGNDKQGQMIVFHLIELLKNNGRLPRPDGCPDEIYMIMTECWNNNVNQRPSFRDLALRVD
Assay Name: Purified kinase assay (Z'-LYTE), JAK2
Type: biochemical
Measurement Context: Table 1; read-out: JAK2 IC50
Below is a list of entries, each paired with its recorded IC50 value.

- CC(=O)N1CCN(c2ccc(Nc3cc(NCc4cccc(-n5ccnc5)c4)c(C(N)=O)nn3)cc2)CC1 [Compound 68]: > 1000 nM
- NC(=O)c1nnc(Nc2ccc(N3CCOCC3)cn2)cc1NCc1cccc(F)c1 [Compound 64]: 10 to 100 nM
- CS(=O)(=O)Cc1ccc(Nc2cc(NCc3c(F)cccc3F)c(C(N)=O)nn2)cc1 [Compound 87]: 100 to 1000 nM

Below: the item to evaluate.
May I ask what IC50 has been recorded for CC(C)n1cc(Nc2cc(NCc3c(F)cccc3F)c(C(N)=O)nn2)cn1 [Compound 113] ?
10 to 100 nM

====

Below is a list of entries, each paired with its recorded pIC50 value.
Tested Target: JAK1 (Homo sapiens (Human), UniProt P23458)
Sequence (P23458 875-1153): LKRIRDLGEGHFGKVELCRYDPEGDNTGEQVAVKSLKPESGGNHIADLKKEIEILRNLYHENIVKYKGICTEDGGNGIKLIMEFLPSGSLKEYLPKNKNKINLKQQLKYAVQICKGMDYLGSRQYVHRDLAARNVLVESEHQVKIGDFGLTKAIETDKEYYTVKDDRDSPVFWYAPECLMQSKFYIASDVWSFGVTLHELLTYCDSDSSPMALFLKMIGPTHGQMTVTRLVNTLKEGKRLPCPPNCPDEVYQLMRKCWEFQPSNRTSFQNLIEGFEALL
Assay Name: Purified kinase assay (Z'-LYTE), JAK1
Assay type: biochemical
Measurement Context: Table 2; read-out: JAK1
pIC50: −log10 of the molar value.

May I ask what pIC50 has been recorded for CC(=O)N1CCN(c2ccc(Nc3cc(NCc4cccc5ccsc45)c(C(N)=O)nn3)cc2)CC1 [Compound 98] ?
< 6.00

May I ask what pIC50 has been recorded for CCC(=O)N1CCN(c2ccc(Nc3cc(NCc4c(F)cccc4F)c(C(N)=O)nn3)cc2)CC1 [Compound 33] ?
6.00 to 7.00

====

Tested Target: JAK3 (Homo sapiens (Human), UniProt P52333)
Assay Name: Purified kinase assay (Z'-LYTE), JAK3
Assay type: biochemical
Measurement Context: Table 1; read-out: JAK3 IC50
Below is a list of entries, each paired with its recorded IC50 value.

- NC(=O)c1nnc(Nc2cnn(CC3CC3)c2)cc1NCc1cccc(F)c1F: 10 to 100 nM
- NC(=O)c1nnc(Nc2ncc(C(=O)N3CCOCC3)s2)cc1NCc1cccc(F)c1: 10 to 100 nM
- CC(C)n1cc(Nc2cc(NCc3cccc4ccsc34)c(C(N)=O)nn2)cn1: 1 to 10 nM
- CC(=O)N1CCN(c2ccc(Nc3cc(NCc4cccs4)c(C(N)=O)nn3)cc2)CC1: 10 to 100 nM

Below: the item to evaluate.
May I ask what IC50 has been recorded for CC(=O)N1CCN(c2ccc(Nc3cc(NC4CCCC4)c(C(N)=O)nn3)cc2)CC1 ?
100 to 1000 nM

====

Below is a list of entries, each paired with its recorded pIC50 value.
Tested Target: JAK1 (Homo sapiens (Human), UniProt P23458)
Assay Name: Purified kinase assay (Z'-LYTE), JAK1
Assay type: biochemical
Measurement Context: Table 1; read-out: JAK1 IC50
pIC50: −log10 of the molar value.

Please review the following examples before continuing.
* CC(=O)N1CCC(Cn2cc(Nc3cc(NCc4cccc5ccsc45)c(C(N)=O)nn3)cn2)CC1 | 6.00 to 7.00
* CS(=O)(=O)Cc1ccc(Nc2cc(NCc3cccc(F)c3)c(C(N)=O)nn2)cc1 | 6.00 to 7.00
* CS(=O)(=O)Cc1cccc(Nc2cc(NCc3cccc(F)c3)c(C(N)=O)nn2)c1 | < 6.00
* CCC(=O)N1CCN(c2ccc(Nc3cc(NCc4cccc5[nH]ccc45)c(C(N)=O)nn3)cc2)CC1 | 7.00 to 8.00

May I ask what pIC50 has been recorded for COC(=O)N(C)c1ccc(Nc2cc(NCc3cccc(F)c3F)c(C(N)=O)nn2)cc1 ?
< 6.00

May I ask what pIC50 has been recorded for NC(=O)c1nnc(Nc2ccc(N3CCOCC3)cc2)cc1NCc1c(F)cccc1F ?
6.00 to 7.00

May I ask what pIC50 has been recorded for CCC(=O)N1CCC(Cn2cc(Nc3cc(NCc4cccc5ccsc45)c(C(N)=O)nn3)cn2)CC1 ?
6.00 to 7.00

May I ask what pIC50 has been recorded for Cc1cc(Nc2cc(NCc3cccc(F)c3F)c(C(N)=O)nn2)ccc1C(=O)N1CCCC1 ?
6.00 to 7.00
